Test: Plasma PK of H3B-6545 capsules in fasted patients, phase 1 dose escalation
Type: in vivo, human
Settings: female, human, plasma, oral, 100 mg, Cycle 1 Day 1; 100 mg QD capsules, fasted patients; Median (Min, Max)
Experimental: Blood samples were collected at the planned time points from each patient and centrifuged. […] The concentration data were then analyzed using Phoenix® WinNonlin software to obtain PK parameters. […] Blood samples (approximately 5 mL each) were collected from human patients pre-dose and at various hourly time points post-dose. Plasma concentrations of H3B-6545 were determined using a validated high-performance liquid chromatography/tandem mass spectrometry (LC-MS/MS) method. […]
Property Name: Tmax (h)

>>> test_result("CN(C)C(=O)/C=C/CNCCOc1ccc(/C(=C(/CC(F)(F)F)c2ccccc2)c2ccc3[nH]nc(F)c3c2)cn1")
3.05

---

Test: Plasma PK of H3B-6545 capsules in fasted patients, phase 1 dose escalation
Type: in vivo, human
Settings: female, human, plasma, oral, 450 mg, Cycle 1 Day 1; 450 mg QD capsules, fasted patients; Geometric Mean (GeoCV %); read-out: Vss
Procedure: Blood samples were collected at the planned time points from each patient and centrifuged. […] The concentration data were then analyzed using Phoenix® WinNonlin software to obtain PK parameters. […] Blood samples (approximately 5 mL each) were collected from human patients pre-dose and at various hourly time points post-dose. Plasma concentrations of H3B-6545 were determined using a validated high-performance liquid chromatography/tandem mass spectrometry (LC-MS/MS) method. […]
Property Name: Vd (L)

>>> test_result("CN(C)C(=O)/C=C/CNCCOc1ccc(/C(=C(/CC(F)(F)F)c2ccccc2)c2ccc3[nH]nc(F)c3c2)cn1")
343

---

Test: Plasma PK of H3B-6545 capsules in fasted patients, phase 1 dose escalation
Format: in vivo, human
Conditions: female, human, plasma, oral, 450 mg, Cycle 1 Day 15; 450 mg QD capsules, fasted patients; Geometric Mean (GeoCV %); read-out: AUC0-t
Property Name: AUC(0-t) (ng·h/mL)

>>> test_result("CN(C)C(=O)/C=C/CNCCOc1ccc(/C(=C(/CC(F)(F)F)c2ccccc2)c2ccc3[nH]nc(F)c3c2)cn1")
14100

---

Test: Plasma PK of H3B-6545 capsules in fasted patients, phase 1 dose escalation
Assay type: in vivo, human
Conditions: female, human, plasma, oral, 450 mg, Cycle 1 Day 1; 450 mg QD capsules, fasted patients; Median (Min, Max)
Property Name: Tmax (h)

>>> test_result("CN(C)C(=O)/C=C/CNCCOc1ccc(/C(=C(/CC(F)(F)F)c2ccccc2)c2ccc3[nH]nc(F)c3c2)cn1")
4

---

Experiment: Plasma PK of H3B-6545 capsules in fasted patients, phase 1 dose escalation
Assay type: in vivo, human
Details: female, human, plasma, oral, 100 mg, Cycle 1 Day 1; 100 mg QD capsules, fasted patients; Geometric Mean (GeoCV %); read-out: AUC0-24
Property Name: AUC(0-t) (ng·h/mL)

>>> test_result("CN(C)C(=O)/C=C/CNCCOc1ccc(/C(=C(/CC(F)(F)F)c2ccccc2)c2ccc3[nH]nc(F)c3c2)cn1")
1680

---

Assay: Plasma PK of H3B-6545 capsules in fasted patients, phase 1 dose escalation
Assay type: in vivo, human
Details: female, human, plasma, oral, 450 mg, Cycle 1 Day 1; 450 mg QD capsules, fasted patients; Geometric Mean (GeoCV %)
Property Name: half-life (h)

>>> test_result("CN(C)C(=O)/C=C/CNCCOc1ccc(/C(=C(/CC(F)(F)F)c2ccccc2)c2ccc3[nH]nc(F)c3c2)cn1")
11
